# System: MDCK
# Assay Remarks: Cytotoxicity against MDCK cells by MTT assay
# Type: cell-based, Canis lupus familiaris
# Test Settings: dog, mdck
Experimental Endpoint: CC50 (µM)
# output: bare number, implied unit µM

In plain terms, CC[C@H](C)[C@H](N/C=C1\C(=O)C(O)=C(C(C)C)c2cc(C)c(-c3c(C)cc4c(c3O)/C(=C/N[C@H](C(=O)[O-])[C@@H](C)CC)C(=O)C(O)=C4C(C)C)c(O)c21)C(=O)[O-].[Na+].[Na+] (stereo in doubt; (+)-8b) has a documented CC50 of 42.2

In plain terms, Cc1cc2c(c(O)c1-c1c(C)cc3c(c1O)/C(=C/N[C@@H](C)C(=O)[O-])C(=O)C(O)=C3C(C)C)/C(=C/N[C@@H](C)C(=O)[O-])C(=O)C(O)=C2C(C)C.[Na+].[Na+] (stereo in doubt; (+)-5b) has a documented CC50 of 47.3

In plain terms, `Cc1cc2c(C(C)C)c(O)c(O)c(C(=O)O)c2c(O)c1-c1c(C)cc2c(C(C)C)c(O)c(O)c(C(=O)O)c2c1O` has a documented CC50 of 36.3

In plain terms, COC(=O)[C@H](C)N/C=C1\C(=O)C(O)=C(C(C)C)c2cc(C)c(-c3c(C)cc4c(c3O)/C(=C/N[C@@H](C)C(=O)OC)C(=O)C(O)=C4C(C)C)c(O)c21 (stereo in doubt; (+)-10b) has a documented CC50 of 48.4

In plain terms, Cc1cc2c(c(O)c1-c1c(C)cc3c(c1O)/C(=C/N[C@H](C(=O)[O-])C(C)C)C(=O)C(O)=C3C(C)C)/C(=C/N[C@H](C(=O)[O-])C(C)C)C(=O)C(O)=C2C(C)C.[Na+].[Na+] (stereo in doubt; (+)-6b) has a documented CC50 of 43.8
